Assign Papp to each entry below.
- TEST NAME: Permeability of the compound across blood brain barrier
- Assay type: ADME
- ASSAY SETUP: read-out: BBB
The answer is to be given in ×10⁻⁶ cm/s; state only the numeric part.

What does the record list as Papp for C[C@@H](c1cccc(OC(=O)NCCc2c[nH]c3ccc(Cl)cc23)c1)N(C)C ?
13

What does the record list as Papp for C[C@@H](c1cccc(OC(=O)NCCc2c[nH]c3ccc(O)cc23)c1)N(C)C ?
11.5

###

- TGT: Cholinesterase (Equus caballus, UniProt P81908)
- Sequence (P81908 whole entry): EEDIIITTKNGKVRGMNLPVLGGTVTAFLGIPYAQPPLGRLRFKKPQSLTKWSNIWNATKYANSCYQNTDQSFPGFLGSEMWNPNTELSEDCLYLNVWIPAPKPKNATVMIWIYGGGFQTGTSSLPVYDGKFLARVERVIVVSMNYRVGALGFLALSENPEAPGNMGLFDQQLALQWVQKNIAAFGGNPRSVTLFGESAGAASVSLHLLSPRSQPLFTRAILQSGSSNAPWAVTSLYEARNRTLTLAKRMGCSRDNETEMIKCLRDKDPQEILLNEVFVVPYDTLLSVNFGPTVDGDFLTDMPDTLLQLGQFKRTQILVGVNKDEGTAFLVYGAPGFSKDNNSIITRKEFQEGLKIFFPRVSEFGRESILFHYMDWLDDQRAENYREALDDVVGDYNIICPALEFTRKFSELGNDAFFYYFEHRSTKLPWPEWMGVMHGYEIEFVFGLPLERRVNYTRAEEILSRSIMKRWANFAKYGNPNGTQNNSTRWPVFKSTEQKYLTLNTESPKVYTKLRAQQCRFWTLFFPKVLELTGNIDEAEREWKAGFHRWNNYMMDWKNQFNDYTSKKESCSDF
- TEST NAME: Inhibition of equine serum BChE using acetylthiocholine iodide as substrate preincubated with compound for 30 mins followed by substrate addition and measured after 30 mins by DTNB reagent based Ellman's method
pIC50: −log10 of the molar value.
Each entry gets false if its pIC50 stays under 8, and true if its pIC50 is 8 or above.

Check the entry COc1ccc2[nH]cc(CCNC(=O)Oc3cccc([C@H](C)N(C)C)c3)c2c1 : does pIC50 equal or exceed 8?
true

Check the entry C[C@@H](c1cccc(OC(=O)NCCc2c[nH]c3ccc(O)cc23)c1)N(C)C : does pIC50 equal or exceed 8?
false

Check the entry CC(c1cccc(OC(=O)NCCc2c[nH]c3ccc(O)cc23)c1)N(C)C (stereo unspecified) : does pIC50 equal or exceed 8?
false

Check the entry Cc1ccc2[nH]cc(CCNC(=O)Oc3cccc(C(C)N(C)C)c3)c2c1 (stereo unspecified) : does pIC50 equal or exceed 8?
false

Check the entry CC(c1cccc(OC(=O)NCCc2c[nH]c3ccc(Cl)cc23)c1)N(C)C (stereo unspecified) : does pIC50 equal or exceed 8?
true

Check the entry Cc1ccc2[nH]cc(CCNC(=O)Oc3cccc([C@H](C)N(C)C)c3)c2c1 : does pIC50 equal or exceed 8?
false

Check the entry C[C@@H](c1cccc(OC(=O)NCCc2c[nH]c3ccc(Cl)cc23)c1)N(C)C : does pIC50 equal or exceed 8?
true

###

- TEST NAME: Antioxidant activity assessed as DPPH radical scavenging activity at 200 uM incubated for 30 mins relative to control
- Assay type: functional
REPORTED PROPERTY: Activity (%)
The answer is to be given in %; state only the numeric part.

What does the record list as Activity for C[C@@H](c1cccc(OC(=O)NCCc2c[nH]c3ccc(Cl)cc23)c1)N(C)C ?
38.9

What does the record list as Activity for CC(c1cccc(OC(=O)NCCc2c[nH]c3ccc(Cl)cc23)c1)N(C)C (centres undefined) ?
33.3

What does the record list as Activity for COc1ccc2[nH]cc(CCNC(=O)Oc3cccc([C@H](C)N(C)C)c3)c2c1 ?
19.8

What does the record list as Activity for CCN(C)C(=O)Oc1cccc([C@H](C)N(C)C)c1 ?
3.71

###

Assign pIC50 to each entry below.
- TGT: Acetylcholinesterase (Homo sapiens, UniProt P22303)
- Sequence (P22303 whole entry): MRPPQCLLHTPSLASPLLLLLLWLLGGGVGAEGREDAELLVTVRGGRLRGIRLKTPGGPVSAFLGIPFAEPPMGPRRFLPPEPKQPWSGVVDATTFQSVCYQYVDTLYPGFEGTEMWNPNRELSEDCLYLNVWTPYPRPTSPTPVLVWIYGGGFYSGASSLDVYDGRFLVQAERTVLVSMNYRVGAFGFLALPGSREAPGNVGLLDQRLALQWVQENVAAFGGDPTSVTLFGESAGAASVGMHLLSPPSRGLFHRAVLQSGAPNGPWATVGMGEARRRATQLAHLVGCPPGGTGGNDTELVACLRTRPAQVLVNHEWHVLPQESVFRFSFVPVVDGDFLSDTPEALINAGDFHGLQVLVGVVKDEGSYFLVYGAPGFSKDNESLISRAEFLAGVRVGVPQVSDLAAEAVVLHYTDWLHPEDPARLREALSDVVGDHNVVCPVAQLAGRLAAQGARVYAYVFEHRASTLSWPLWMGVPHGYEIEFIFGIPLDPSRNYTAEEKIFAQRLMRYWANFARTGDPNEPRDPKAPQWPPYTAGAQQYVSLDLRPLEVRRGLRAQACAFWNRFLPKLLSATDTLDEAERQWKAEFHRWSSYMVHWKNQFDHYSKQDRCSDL
- TEST NAME: Inhibition of human recombinant AChE expressed in HEK293 cells using acetylthiocholine iodide as substrate preincubated with compound for 30 mins followed by substrate addition and measured after 30 mins by DTNB reagent based Ellman's method
Note: pIC50 values are expressed as the negative base-10 logarithm of concentration in M.

Please tell me: pIC50 of C[C@@H](c1cccc(OC(=O)NCCc2c[nH]c3ccc(Cl)cc23)c1)N(C)C , system Acetylcholinesterase (Homo sapiens, UniProt P22303)?
8.10

Please tell me: pIC50 of CC(c1cccc(OC(=O)NCCc2c[nH]c3ccc(O)cc23)c1)N(C)C (stereo unspecified) , system Acetylcholinesterase (Homo sapiens, UniProt P22303)?
8.64

Please tell me: pIC50 of Cc1ccc2[nH]cc(CCNC(=O)Oc3cccc([C@H](C)N(C)C)c3)c2c1 , system Acetylcholinesterase (Homo sapiens, UniProt P22303)?
7.26

Please tell me: pIC50 of C[C@H](c1cccc(OC(=O)NCCc2c[nH]c3ccc(Cl)cc23)c1)N(C)C , system Acetylcholinesterase (Homo sapiens, UniProt P22303)?
8.08

Please tell me: pIC50 of COc1ccc2[nH]cc(CCNC(=O)Oc3cccc(C(C)N(C)C)c3)c2c1 (stereo unspecified) , system Acetylcholinesterase (Homo sapiens, UniProt P22303)?
7.32

Please tell me: pIC50 of C[C@@H](c1cccc(OC(=O)NCCc2c[nH]c3ccccc23)c1)N(C)C , system Acetylcholinesterase (Homo sapiens, UniProt P22303)?
7.65

Please tell me: pIC50 of COc1ccc2[nH]cc(CCNC(=O)Oc3cccc([C@H](C)N(C)C)c3)c2c1 , system Acetylcholinesterase (Homo sapiens, UniProt P22303)?
7.67

Please tell me: pIC50 of CC(c1cccc(OC(=O)NCCc2c[nH]c3ccc(Cl)cc23)c1)N(C)C (stereo unspecified) , system Acetylcholinesterase (Homo sapiens, UniProt P22303)?
7.86

Please tell me: pIC50 of CC(c1cccc(OC(=O)NCCc2c[nH]c3ccccc23)c1)N(C)C (stereo unspecified) , system Acetylcholinesterase (Homo sapiens, UniProt P22303)?
7.61

Please tell me: pIC50 of C[C@@H](c1cccc(OC(=O)NCCc2c[nH]c3ccc(O)cc23)c1)N(C)C , system Acetylcholinesterase (Homo sapiens, UniProt P22303)?
9.00

Please tell me: pIC50 of Cc1ccc2[nH]cc(CCNC(=O)Oc3cccc(C(C)N(C)C)c3)c2c1 (stereo unspecified) , system Acetylcholinesterase (Homo sapiens, UniProt P22303)?
7.14
